molecular target: h5-HT4b (Homo sapiens, UniProt Q13639); construct: expressed in transfected cells; host or cells: HEK 293 (clone 9), membrane preparation; experiment: 5HT4 antagonism: [3H]GR113808 binding to membranes of h5-HT4b-HEK 293 clone 9 cells; settings: displacement of 0.1 nM [3H]GR113808, membranes of h5-HT4b-HEK 293 cells, 30 min at 25° C.; read-out: pIC50 (converted)
Sequence (Q13639 whole entry): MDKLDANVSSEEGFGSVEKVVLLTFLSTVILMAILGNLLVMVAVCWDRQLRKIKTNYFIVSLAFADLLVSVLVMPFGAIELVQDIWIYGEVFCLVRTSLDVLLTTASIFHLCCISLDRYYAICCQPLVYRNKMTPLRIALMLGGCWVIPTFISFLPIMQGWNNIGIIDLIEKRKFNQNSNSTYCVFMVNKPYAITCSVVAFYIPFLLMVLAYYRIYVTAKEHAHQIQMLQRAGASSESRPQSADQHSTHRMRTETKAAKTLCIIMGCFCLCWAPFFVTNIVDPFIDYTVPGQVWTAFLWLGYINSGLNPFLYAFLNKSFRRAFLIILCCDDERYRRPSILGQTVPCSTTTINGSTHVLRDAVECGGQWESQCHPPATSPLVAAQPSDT
In plain terms, low IC50, meaning strictly below 2 nM, gives label 1, and everything else gives label 0.

Here are 3 compounds together with their reported answers.
compound	assigned class
COC1CN(CCCCS(N)(=O)=O)CCC1CNC(=O)c1cc(Cl)c(Br)c2c1OCCCO2 (centres unmarked) [Compound 43]	label 1
CNS(=O)(=O)CCCN1CC[C@@H](CNC(=O)c2ccc(C)c3c2OCCCO3)[C@H](O)C1 [Compound 34]	label 1
NS(=O)(=O)CCCCN1CCC(CNC(=O)c2cc(F)cc3c2OCCCO3)C(O)C1 (centres unmarked) [Compound 39]	label 0

[Q] is_below(IC50, 2 nM) for COc1ccc(C(=O)NCC2CCN(CCCCS(N)(=O)=O)CC2OC)c2c1OCCO2 (centres unmarked) [Compound 6] ?
[A] label 0

[Q] is_below(IC50, 2 nM) for Cc1ccc(C(=O)NCC2CCN(CCCS(=O)(=O)Nc3ccccc3)CC2O)c2c1OCCCO2 (centres unmarked) [Compound 10] ?
[A] label 1

[Q] is_below(IC50, 2 nM) for Cc1cc2c(c(C(=O)NCC3CCN(CCCCS(N)(=O)=O)CC3O)c1)OCCCO2 (centres unmarked) [Compound 38] ?
[A] label 0

[Q] is_below(IC50, 2 nM) for Cc1cc2c(c(C(=O)NCC3CCN(CCCCS(N)(=O)=O)CC3O)c1)OCCCO2 (centres unmarked) [Compound 20] ?
[A] label 0

[Q] is_below(IC50, 2 nM) for Cc1cc2c(c(C(=O)NC[C@@H]3CCN(CCCS(=O)(=O)Nc4ccccc4)C[C@H]3O)c1)OCCCO2 (relative stereo) [Compound 12] ?
[A] label 1
